# ASSAY_OVERVIEW: decreased DLD-1 cellular survival, CellTiter-Glo luminescent readout, NPC compound collection, primary HTS (AID 1117346)
# EXPERIMENTAL_CONTEXT: DLD-1 viability, CellTiter-Glo luminescence; at 20 µM (top of the series)
MEASURED_METRIC: viability decrease (inhibition) (%)

# COMPOUND, UNIT_NAME, QUANTITATIVE_READOUT
measured = [
    ("CCCCCCCC(=O)OCC(O)CO (stereo unspecified)", "%", -20.5),
    ("CC(C)(C)c1nnc(NS(=O)(=O)c2ccc(N)cc2)s1", "%", -5.4),
    ("COC(=O)CCC[N+](C)(C)C", "%", -12.1),
    ("CN(C)CCOC(c1ccccc1)c1ccccc1", "%", 1),
    ("C=Cc1ccccc1", "%", 1.7),
    ("CN(C)[C@@H]1C(=O)C(C(N)=O)=C(O)[C@@]2(O)C(=O)C3=C(O)c4c(O)cccc4C[C@H]3C[C@@H]12", "%", 89.5),
    ("N#C[C@H]1C[C@H]2C[C@@H]2N1C(=O)[C@@H](N)C12CC3CC(CC(O)(C3)C1)C2", "%", 6.25),
    ("O=P(O)(O)C(O)(Cc1cnc2ccccn12)P(=O)(O)O", "%", 9.7),
    ("COC[C@@H](c1ccc(C(F)(F)F)cc1)N1CCN(C2(C)CCN(C(=O)c3c(C)ncnc3C)CC2)C[C@H]1C", "%", 3.5),
    ("Cc1ccc(O)c(-n2nc3ccccc3n2)c1", "%", 13.8),
    ("C/C=C/C=N/NC(=O)c1ccncc1", "%", -3.65),
    ("Cc1c(C)n(Cc2ccccc2)c2ccc(C(=O)OCCN(C)C)cc12", "%", 95),
    ("Oc1cn2c(n1)Nc1ccc(Cl)c(Cl)c1C2", "%", -16.9),
    ("CCCCCCCCCCOCC(O)CN (stereo unspecified)", "%", 98.4),
    ("COc1cc2c(cc1OC)C(C(C(=O)N(CCc1ccc(OC)c(OC)c1OC)CCc1ccc(OC)c(OC)c1OC)c1ccccc1)=NCC2 (stereo unspecified)", "%", 69.8),
    ("COCCc1ccc(OCC2CO2)cc1 (stereo unspecified)", "%", 3.3),
    ("CN(C)[C@@H]1C(=O)C(C(=O)NCN2CCCC2)=C(O)[C@@]2(O)C(=O)C3=C(O)c4c(O)cccc4[C@@](C)(O)C3C[C@@H]12 (stereo partly specified)", "%", 2.6),
    ("COc1ccccc1N1CCN(CCCNc2cc(=O)n(C)c(=O)n2C)CC1", "%", -9.9),
    ("C[C@H](CCC(=O)O)[C@H]1CC[C@H]2[C@@H]3C(=O)C[C@@H]4CC(=O)CC[C@]4(C)[C@H]3CC(=O)[C@]12C", "%", -16),
    ("Cc1cccc(C)c1NC(=O)CN1CCCCCC1", "%", -8.2),
    ("CCCCCCCCCCCCOCCOCCOCCOCCOCCOCCOCCOCCOCCO", "%", 104),
]

----------
Listing of entries alongside the reported log fold change Tl+ flux.
# Test system: R275C/beta4
# ASSAY_OVERVIEW: modulators of BK channel variants, profiling panel, selectivity assay, cell-based, U2OS BacMam, thallium flux, beta subunits (AID 1259406);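 note: initial slope of Thallos dye fluorescence rise after thallium is added; log ratio against the mean of 0.3% DMSO vehicle wells on the same plate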
# EXPERIMENTAL_CONTEXT: at 30 µM
The source made the active and inactive calls.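 Rule for the calls: active = thallium flux through the channel raised or lowered by more than 3 SD from vehicle-only wells, actives on both sides; inactive = the rest.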

# COMPOUND, log fold change Tl+ flux
data = [
    ("CC(C)[N+](C)(CCOC(=O)C1c2ccccc2Oc2ccccc21)C(C)C", "-0.0395 (inactive)"),
    ("COc1ccc(OC)c(C(O)CNC(=O)CN)c1 (stereo unspecified)", "0.00841 (inactive)"),
    ("C[C@]12C=CC(=O)C=C1CC[C@@H]1[C@@H]2[C@@H](O)C[C@@]2(C)[C@H]1CC[C@]2(O)C(=O)CO", "-0.0125 (inactive)"),
    ("CCN(CC)CCNC(=O)c1ccc(N)cc1", "-0.0764 (inactive)"),
    ("S=c1nc[nH]c2nc[nH]c12", "-0.0907 (inactive)"),
    ("CN(C)CCc1c[nH]c2ccc(C[C@H]3COC(=O)N3)cc12", "0.00246 (inactive)"),
    ("NS(=O)(=O)c1cc2c(cc1Cl)NC=NS2(=O)=O", "0.0288 (inactive)"),
    ("O=C1CCC(N2C(=O)c3ccccc3C2=O)C(=O)N1 (stereo unspecified)", "-0.108 (inactive)"),
    ("CC(C)Cc1ccc(C(C)C(=O)O)cc1 (stereo unspecified)", "-0.0471 (inactive)"),
    ("O=C(O)c1cccnc1", "0.0274 (inactive)"),
    ("C[C@H]1C[C@@H]2[C@H]([C@@H](O)C[C@@]3(C)[C@H]2CC[C@]3(O)C(=O)CO)[C@@]2(C)C=CC(=O)C=C12", "-0.00754 (inactive)"),
]

----------
# Tested on: F380Y/beta4
# ASSAY_OVERVIEW: modulators of BK channel variants, profiling panel, selectivity assay, cell-based, U2OS BacMam, thallium flux, beta subunits (AID 1259406);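 note: initial slope of Thallos dye fluorescence rise after thallium is added; log ratio against the mean of 0.3% DMSO vehicle wells on the same plate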
# EXPERIMENTAL_CONTEXT: at 30 µM
Active and inactive are the calls of the source.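 The calls were made as follows: active = thallium flux through the channel raised or lowered by more than 3 SD from vehicle-only wells, actives on both sides; inactive = the rest.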
Outcome codes: active, inactive

# COMPOUND, CATEGORY_LABEL
rows = [
    ("CN(C)CCCN1c2ccccc2CCc2ccc(Cl)cc21", "active"),
    ("Cc1cccc(Nc2ccccc2C(=O)O)c1C", "active"),
    ("Clc1cccc(Cl)c1NC1=NCCN1", "inactive"),
    ("C=C(CC)C(=O)c1ccc(OCC(=O)O)c(Cl)c1Cl", "inactive"),
    ("N[C@@H](C(=O)N[C@@H]1C(=O)N2C(C(=O)O)=C(Cl)CS[C@H]12)c1ccccc1", "inactive"),
    ("Cn1cnc([N+](=O)[O-])c1Sc1ncnc2nc[nH]c12", "inactive"),
    ("O=C1c2c(O)ccc(O)c2C(=O)c2c(NCCNCCO)ccc(NCCNCCO)c21", "inactive"),
    ("CCCCNc1cc(C(=O)O)cc(S(N)(=O)=O)c1Oc1ccccc1", "inactive"),
    ("O=C(CCCN1CC=C(n2c(=O)[nH]c3ccccc32)CC1)c1ccc(F)cc1", "inactive"),
    ("Cc1ccc(C)c(OCCCC(C)(C)C(=O)O)c1", "inactive"),
    ("CC12CC3CC(C)(C1)CC(N)(C3)C2", "inactive"),
    ("CN(C)CCC=C1c2ccccc2CCc2ccccc21", "active"),
    ("OC(Cn1cncn1)(Cn1cncn1)c1ccc(F)cc1F", "inactive"),
    ("CC[N+](C)(C)c1cccc(O)c1", "inactive"),
    ("CC(C)[N+](C)(CCOC(=O)C1c2ccccc2Oc2ccccc21)C(C)C", "inactive"),
    ("O=C1C(CCS(=O)c2ccccc2)C(=O)N(c2ccccc2)N1c1ccccc1 (stereo not drawn)", "inactive"),
    ("Cc1ccc(Cl)c(Nc2ccccc2C(=O)O)c1Cl", "active"),
    ("NS(=O)(=O)c1cc2c(cc1C(F)(F)F)NC(Cc1ccccc1)NS2(=O)=O (stereo not drawn)", "inactive"),
    ("COC1=CC(=O)C[C@@H](C)[C@]12Oc1c(Cl)c(OC)cc(OC)c1C2=O", "inactive"),
    ("CC(C)C1CCC(C(=O)N[C@H](Cc2ccccc2)C(=O)O)CC1 (stereo partly drawn)", "inactive"),
    ("CC(=O)OCC(=O)[C@@]1(O)CC[C@H]2[C@@H]3CCC4=CC(=O)C=C[C@]4(C)[C@H]3[C@@H](O)C[C@@]21C", "inactive"),
    ("COc1c(N2CCNC(C)C2)c(F)cc2c(=O)c(C(=O)O)cn(C3CC3)c12 (stereo not drawn)", "inactive"),
    ("Cc1cccc(Nc2ccncc2S(=O)(=O)NC(=O)NC(C)C)c1", "inactive"),
]

----------
Listing of entries alongside the reported viability.
# ASSAY_OVERVIEW: ovarian cancer cell viability with rucaparib, profiling panel, oncology-focused library, rucaparib conditional (AID 1508598)
# EXPERIMENTAL_CONTEXT: patient-derived ovarian cancer cells, CellTiter-Glo viability, 144 h; at 0.000305 µM; OCI-C5x cells; with rucaparib 10 µM; stronger effect = lower value; 100% = cells with rucaparib alone
MEASURED_METRIC: viability (%)

# STRUCTURE_SMILES, MEASURED_METRIC, QUANTITATIVE_READOUT
measured = [
    ("Cc1ccc(-c2cc(C(F)(F)F)nn2-c2ccc(S(N)(=O)=O)cc2)cc1", "viability", 113),
    ("O=c1[nH]cc(F)c(=O)[nH]1", "viability", 118),
    ("O=c1[nH]cnc2[nH]ncc12", "viability", 116),
    ("CC1=C(/C=C/C(C)=C/C=C/C(C)=C/C(=O)O)C(C)(C)CCC1", "viability", 106),
    ("S=c1nc[nH]c2nc[nH]c12", "viability", 120),
    ("NC(=O)c1ccc(-c2nc(-c3ccc4c(c3)OCO4)c(-c3ccccn3)[nH]2)cc1", "viability", 134),
]
